# tested-target: KRAS G13D (Homo sapiens (Human), UniProt P01116+P62937, G13D)
# Sequence (P01116 other isoform, or with tags, fused parts or gaps G13D, one chain of several): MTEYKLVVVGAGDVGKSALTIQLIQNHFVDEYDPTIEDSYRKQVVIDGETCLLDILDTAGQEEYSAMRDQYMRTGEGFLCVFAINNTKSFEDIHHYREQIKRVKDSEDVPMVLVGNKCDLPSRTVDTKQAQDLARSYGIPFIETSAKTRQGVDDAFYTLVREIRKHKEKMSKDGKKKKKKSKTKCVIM
# assay-details: Ras-Raf disruption/FRET/MOA assay (BRAF RBD, Cyclophilin A)
# Type: biochemical
# condition-description: read-out: KRAS G13D FRET data IC50
pIC50: −log10 of the molar value.

{"columns": ["compound", "pIC50"],
 "data": [
  ["CCn1c(-c2cccnc2[C@H](C)OC)c2c3cc(ccc31)-c1cc(O)cc(c1)C[C@H](NC(=O)[C@H](C(C)C)N(C)C(=O)[C@H]1CC[C@@H](C(N)=O)O1)C(=O)N1CCC[C@H](N1)C(=O)OCC(C)(C)C2 [Compound A414]", "6.00 to 7.00"],
  ["CCn1c(-c2cccnc2[C@H](C)OC)c2c3cc(ccc31)-c1cc(O)cc(c1)C[C@H](NC(=O)[C@H](C(C)C)N(C)C(=O)[C@@H]1CN(C(=O)OC)C[C@@H]1C)C(=O)N1CCC[C@H](N1)C(=O)OCC(C)(C)C2 [Compound A325]", "7.00 to 8.00"]
]}

====

# IC50 annotations
# tested-target: KRAS Q61H (Homo sapiens (Human), UniProt P01116+P62937, Q61H)
# Sequence (P01116 other isoform, or with tags, fused parts or gaps Q61H): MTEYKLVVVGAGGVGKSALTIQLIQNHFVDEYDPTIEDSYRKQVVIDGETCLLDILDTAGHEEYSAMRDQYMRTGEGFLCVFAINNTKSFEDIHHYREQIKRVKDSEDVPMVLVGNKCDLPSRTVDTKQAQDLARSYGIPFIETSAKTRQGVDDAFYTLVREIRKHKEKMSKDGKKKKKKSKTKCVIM
# Sequence (P62937 whole entry): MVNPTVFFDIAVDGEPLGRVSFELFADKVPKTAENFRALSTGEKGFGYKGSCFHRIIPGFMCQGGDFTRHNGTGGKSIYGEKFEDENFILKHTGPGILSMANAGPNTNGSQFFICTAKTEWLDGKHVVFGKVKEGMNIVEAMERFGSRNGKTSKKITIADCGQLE
# assay-details: Ras-Raf disruption/FRET/MOA assay (BRAF RBD, Cyclophilin A)
# Type: biochemical
value-kind: IC50

{"columns": ["molecule", "result"],
 "data": [
  ["CCn1c(-c2cccnc2[C@H](C)OC)c2c3cc(ccc31)-c1csc(n1)C[C@H](NC(=O)[C@H](C(C)C)N(C)C(=O)N1CC(CN(C)C)C1)C(=O)N1CCC[C@H](N1)C(=O)OCC(C)(C)C2 [Compound A576]", "100 to 1000 nM"],
  ["CCn1c(-c2cccnc2[C@H](C)OC)c2c3cc(ccc31)-c1csc(n1)C[C@H](NC(=O)[C@H](C(C)C)N(C)C(=O)N1CC([C@H](CO)OC)C1)C(=O)N1CCC[C@H](N1)C(=O)OCC(C)(C)C2 [Compound A515]", "10 to 100 nM"],
  ["CCn1c(-c2cccnc2[C@H](C)OC)c2c3cc(ccc31)-c1csc(n1)C[C@H](NC(=O)[C@H](C(C)C)N(C)C(=O)N1CCN(C(C)=O)CC1)C(=O)N1CCC[C@H](N1)C(=O)OCC(C)(C)C2 [Compound A291]", "10 to 100 nM"],
  ["CCn1c(-c2cccnc2[C@H](C)OC)c2c3cc(ccc31)-c1csc(n1)C[C@H](NC(=O)[C@H](C(C)C)N(C)C(=O)N1CC[C@H](O)C1)C(=O)N1CCC[C@H](N1)C(=O)OCC(C)(C)C2 [Compound A401]", "10 to 100 nM"],
  ["CCn1c(-c2cccnc2[C@H](C)OC)c2c3cc(ccc31)-c1csc(n1)C[C@H](NC(=O)N1CCC1)C(=O)N1CCC[C@H](N1)C(=O)OCC(C)(C)C2 [Compound A368]", "100 to 1000 nM"],
  ["CCn1c(-c2cccnc2[C@H](C)OC)c2c3cc(ccc31)-c1cc(O)cc(c1)C[C@H](NC(=O)[C@H](C(C)C)N(C)C(=O)[C@@]1(F)CCN(C(=O)OC)C1)C(=O)N1CCC[C@H](N1)C(=O)OCC(C)(C)C2 [Compound A615]", "10 to 100 nM"],
  ["CCn1c(-c2cccnc2[C@H](C)OC)c2c3cc(ccc31)-c1csc(n1)C[C@H](NC(=O)C1(F)CCC1)C(=O)N1CCC[C@H](N1)C(=O)OCC(C)(C)C2 [Compound A361]", "100 to 1000 nM"],
  ["CCn1c(-c2cccnc2[C@H](C)OC)c2c3cc(ccc31)-c1csc(n1)[C@@H](OCC1CCN(C)CC1)[C@H](NC(=O)[C@H]1C[C@@H]1C)C(=O)N1CCC[C@H](N1)C(=O)OCC(C)(C)C2 [Compound A451]", "100 to 1000 nM"],
  ["CCn1c(-c2cccnc2[C@H](C)OC)c2c3cc(ccc31)-c1csc(n1)C[C@H](NC(=O)[C@H](C(C)C)N(C)C(=O)N(C)[C@H]1CCN(C)C1)C(=O)N1CCC[C@H](N1)C(=O)OCC(C)(C)C2 [Compound A563]", "10 to 100 nM"]
]}

====

# tested-target: KRAS G12C (Homo sapiens (Human), UniProt P01116+P62937, G12C)
# Sequence (P01116-2 other isoform, or with tags, fused parts or gaps G12C): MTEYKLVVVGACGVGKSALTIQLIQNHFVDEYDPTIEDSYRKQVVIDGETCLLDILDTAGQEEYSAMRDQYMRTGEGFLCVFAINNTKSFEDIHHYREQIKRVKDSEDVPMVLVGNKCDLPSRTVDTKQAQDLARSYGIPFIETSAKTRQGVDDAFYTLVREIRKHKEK
# Sequence (P62937 whole entry): as the sequence (P62937 whole entry) above
# assay-details: Ras-Raf disruption/FRET/MOA assay (BRAF RBD, Cyclophilin A)
# Assay type: biochemical
# condition-description: read-out: KRAS G12C FRET IC50
# Experimental: Compound is present in plate wells as a 10-point 3-fold dilution series starting at a final concentration of 30 μM. After incubation at 25° C. for 3 hours, a mixture of Anti-His Eu—W1024 and anti-GST allophycocyanin is then added to assay sample wells at final concentrations of 10 nM and 50 nM, respectively, and the reaction incubated for an additional 1.5 hours. […]
pIC50: −log10 of the molar value.
value-kind: pIC50

{"columns": ["smiles-str", "result"],
 "data": [
  ["CCn1c(-c2cccnc2[C@H](C)OC)c2c3cc(ccc31)-c1cc(O)cc(c1)C[C@H](NC(=O)[C@H](C(C)C)N(C)C(=O)[C@H]1CCN(C(=O)C(C)(C)NC)C1)C(=O)N1CCC[C@H](N1)C(=O)OCC(C)(C)C2", "7.00 to 8.00"],
  ["CCn1c(-c2cccnc2[C@H](C)OC)c2c3cc(ccc31)-c1csc(n1)C[C@H](NC(=O)[C@H](C(C)C)N(C)C(=O)N1CC(CN(C)C)C1)C(=O)N1CCC[C@H](N1)C(=O)OCC(C)(C)C2", "7.00 to 8.00"],
  ["CCn1c(-c2cccnc2[C@H](C)OC)c2c3cc(ccc31)-c1cc(O)cc(c1)C[C@H](NC(=O)[C@H](C(C)C)N(C)C(=O)[C@H]1CCCCNC1)C(=O)N1CCC[C@H](N1)C(=O)OCC(C)(C)C2", "7.00 to 8.00"],
  ["CCn1c(-c2cccnc2[C@H](C)OC)c2c3cc(ccc31)-c1cc(O)cc(c1)C[C@H](NC(=O)[C@H](C(C)C)N(C)C(=O)[C@H]1CCN(C(C)=O)C1)C(=O)N1CCC[C@H](N1)C(=O)NCC(C)(C)C2", "6.00 to 7.00"],
  ["CCn1c(-c2cnccc2COC)c2c3cc(ccc31)-c1cc(O)cc(c1)C[C@H](NC(=O)[C@H](C(C)C)N(C)C(=O)[C@H]1CCN(C3COC3)C1)C(=O)N1CCC[C@H](N1)C(=O)OCC(C)(C)C2", "6.00 to 7.00"],
  ["CCn1c(-c2cccnc2[C@H](C)OC)c2c3cc(ccc31)-c1cc(O)cc(c1)C[C@H](NC(=O)[C@H](C(C)C)N(C)C(=O)[C@H]1CNC[C@@H]1C)C(=O)N1CCC[C@H](N1)C(=O)OCC(C)(C)C2", "6.00 to 7.00"],
  ["CCn1c(-c2cccnc2[C@H](C)OC)c2c3cc(ccc31)-c1csc(n1)C[C@H](NC(=O)[C@H](C(C)C)N(C)C(=O)[C@@H]1[C@@H]3CN(C)C[C@@H]31)C(=O)N1CCC[C@H](N1)C(=O)OCC(C)(C)C2", "6.00 to 7.00"],
  ["CCn1c(-c2cccnc2[C@H](C)OC)c2c3cc(ccc31)-c1csc(n1)C[C@H](NC(=O)[C@H](C(C)C)N(C)C(=O)N1CC3(CCOCC3)C1)C(=O)N1CCC[C@H](N1)C(=O)OCC(C)(C)C2", "6.00 to 7.00"],
  ["CCn1c(-c2cccnc2[C@H](C)OC)c2c3cc(ccc31)-c1cc(O)cc(c1)C[C@H](NC(=O)[C@H](C(C)C)N(C)C(=O)[C@@H]1OCC[C@H]1c1ccccc1)C(=O)N1CCC[C@H](N1)C(=O)OCC(C)(C)C2", "7.00 to 8.00"]
]}

====

# IC50 annotations
# tested-target: KRAS G13D (Homo sapiens (Human), UniProt P01116+P62937, G13D)
# assay-details: Ras-Raf disruption/FRET/MOA assay (BRAF RBD, Cyclophilin A)
# Type: biochemical
# condition-description: read-out: KRAS G13D FRET data IC50
value-kind: IC50

{"columns": ["compound", "value-kind", "result"],
 "data": [
  ["CCn1c(-c2cccnc2[C@H](C)OC)c2c3cc(ccc31)-c1cc(O)cc(c1)C[C@H](NC(=O)[C@H](C(C)C)N(C)C(=O)C1CCC1)C(=O)N1CCC[C@H](N1)C(=O)OCC(C)(C)C2", "IC50", "0.1 to 1 µM"],
  ["CCn1c(-c2cccnc2[C@H](C)OC)c2c3cc(ccc31)-c1cc(O)cc(c1)C[C@H](NC(=O)[C@H](C(C)C)N(C)C(=O)[C@H]1OCC[C@H]1c1ccccc1)C(=O)N1CCC[C@H](N1)C(=O)OCC(C)(C)C2", "IC50", "1 to 10 µM"],
  ["CCn1c(-c2cccnc2[C@H](C)OC)c2c3cc(ccc31)-c1csc(n1)C[C@H](NC(=O)[C@H](C(C)C)N(C)C(=O)N1CCCCC1)C(=O)N1CCC[C@H](N1)C(=O)OCC(C)(C)C2", "IC50", "0.1 to 1 µM"],
  ["CCn1c(-c2cnccc2COC)c2c3cc(ccc31)-c1cc(O)cc(c1)C[C@H](NC(=O)[C@H](C(C)C)N(C)C(=O)[C@H]1CN(C(C)=O)C[C@H]1C(F)(F)F)C(=O)N1CCC[C@H](N1)C(=O)OCC(C)(C)C2", "IC50", "0.1 to 1 µM"],
  ["CCn1c(-c2cccnc2[C@H](C)OC)c2c3cc(ccc31)-c1cc(O)cc(c1)C[C@H](NC(=O)[C@H](C(C)C)N(C)C(=O)C1CCNC13CCC3)C(=O)N1CCC[C@H](N1)C(=O)OCC(C)(C)C2 (stereo partly drawn)", "IC50", "0.01 to 0.1 µM"],
  ["CCn1c(-c2cccnc2[C@H](C)OC)c2c3cc(ccc31)-c1csc(n1)C[C@H](NC(=O)[C@H](C(C)C)N(C)C(=O)N1CC[C@H]1CN(C)C)C(=O)N1CCC[C@H](N1)C(=O)OCC(C)(C)C2", "IC50", "1 to 10 µM"],
  ["CCn1c(-c2cnccc2COC)c2c3cc(ccc31)-c1cc(O)cc(c1)C[C@H](NC(=O)[C@H](C(C)C)N(C)c1nccs1)C(=O)N1CCC[C@H](N1)C(=O)OCC(C)(C)C2", "IC50", "1 to 10 µM"],
  ["CCn1c(-c2cccnc2[C@H](C)OC)c2c3cc(ccc31)-c1csc(n1)C[C@H](NC(=O)[C@H](C(C)C)N(C)C(=O)N1CCN(C)[C@@H](c3ccccc3)C1)C(=O)N1CCC[C@H](N1)C(=O)OCC(C)(C)C2", "IC50", "1 to 10 µM"],
  ["CCn1c(-c2cccnc2[C@H](C)OC)c2c3cc(ccc31)-c1csc(n1)C[C@H](NC(=O)[C@H](C(C)C)N(C)C(=O)N1CC[C@@H](F)[C@H](N)C1)C(=O)N1CCC[C@H](N1)C(=O)OCC(C)(C)C2", "IC50", "0.1 to 1 µM"]
]}
